# System: HeLa
# EXPERIMENT NOTES: Cytotoxicity against human HeLa cells by Celltiter-Glo luminescent cell viability assay
# Format: toxicity, cell-based
Each entry below carries its recorded CC50.
Response body: numeric value in µM, unit text excluded.

Please review the following examples before continuing.
# SMILES DATA, CC50 (µM)
data = [
    ("O=C(Nc1ccc(N2CCC3(CCC3)CC2)c(C(F)(F)F)c1)c1ccc(CN2C[C@@H]3C[C@H]2CO3)nc1", 19.1),
    ("O=C(Nc1ccc(N2CCC3(CCC3)CC2)c(C(F)(F)F)c1)c1ccc(C(=O)N2C[C@H]3C[C@@H]2CO3)nc1", 43.4),
    ("O=C(Nc1ccc(N2CCC3(CCC3)CC2)c(C(F)(F)F)c1)c1ccc(CN2C[C@H]3C[C@@H]2CO3)nc1", 13.4),
    ("CC1CCN(c2ccc(NC(=O)c3ccc(CN4CCOCC4)cc3)cc2C(F)(F)F)CC1", 42.7),
]

Continue with the molecule presented below.
[in] Name the recorded CC50 for O=C(Nc1ccc(CN2CCOCC2)cc1)Nc1ccc(C23CC4CC(CC(C4)C2)C3)cc1 .
[out] 16.6
